pIC50: −log10 of the molar value.
What follows is a record of pIC50 for hPARG (Homo sapiens, UniProt Q86W56).

Cc1cnc2n1CCN(c1ncnc3c1c1ccc(S(=O)(=O)NC4(C#N)CC4)cc1n3-c1nnc(C(F)F)s1)C2 [Example 53]    ≥ 7.00
CCSc1ncnc2c1c1ccc(S(=O)(=O)NC3(C#N)CC3)cc1n2-c1nnc(C(F)F)s1 [Example 26]    < 6.00
CN(C)c1ncnc2c1c1ccc(S(=O)(=O)NC3(C#N)CC3)cc1n2-c1nnc(C(F)F)s1 [Example 14]    ≥ 7.00

pIC50 for C[C@@H]1CCCN(c2ncnc3c2c2ccc(S(=O)(=O)NC4(C#N)CC4)cc2n3-c2nnc(C(F)F)s2)C1 [Example 81] ?
≥ 7.00

Consider the compound N#CC1(NS(=O)(=O)c2ccc3c4c(N5CCn6ncnc6C5)ncnc4n(-c4nnc(C(F)F)s4)c3c2)CC1 [Example 49] and give its measured pIC50.
≥ 7.00

Value lookup for pIC50; key = CN(Cc1ccncc1)c1ncnc2c1c1ccc(S(=O)(=O)NC3(C#N)CC3)cc1n2-c1nnc(C(F)F)s1 [Example 21]
≥ 7.00

Fill blank: measured pIC50 of the compound N#CC1(NS(=O)(=O)c2ccc3c4c(N5CCn6cncc6C5)ncnc4n(-c4nnc(C(F)F)s4)c3c2)CC1 [Example 45] is ____.
≥ 7.00

Which value of pIC50 has been reported for CCN(CC)[C@H]1CCN(c2ncnc3c2c2ccc(S(=O)(=O)NC4(C#N)CC4)cc2n3-c2nnc(C(F)F)s2)C[C@@H]1F [Example 32] in the records?
≥ 7.00

====

Below: a set of entries, each annotated with reported pIC50.
- TGT: hPARG (Homo sapiens, UniProt Q86W56)
- Sequence (Q86W56 whole entry): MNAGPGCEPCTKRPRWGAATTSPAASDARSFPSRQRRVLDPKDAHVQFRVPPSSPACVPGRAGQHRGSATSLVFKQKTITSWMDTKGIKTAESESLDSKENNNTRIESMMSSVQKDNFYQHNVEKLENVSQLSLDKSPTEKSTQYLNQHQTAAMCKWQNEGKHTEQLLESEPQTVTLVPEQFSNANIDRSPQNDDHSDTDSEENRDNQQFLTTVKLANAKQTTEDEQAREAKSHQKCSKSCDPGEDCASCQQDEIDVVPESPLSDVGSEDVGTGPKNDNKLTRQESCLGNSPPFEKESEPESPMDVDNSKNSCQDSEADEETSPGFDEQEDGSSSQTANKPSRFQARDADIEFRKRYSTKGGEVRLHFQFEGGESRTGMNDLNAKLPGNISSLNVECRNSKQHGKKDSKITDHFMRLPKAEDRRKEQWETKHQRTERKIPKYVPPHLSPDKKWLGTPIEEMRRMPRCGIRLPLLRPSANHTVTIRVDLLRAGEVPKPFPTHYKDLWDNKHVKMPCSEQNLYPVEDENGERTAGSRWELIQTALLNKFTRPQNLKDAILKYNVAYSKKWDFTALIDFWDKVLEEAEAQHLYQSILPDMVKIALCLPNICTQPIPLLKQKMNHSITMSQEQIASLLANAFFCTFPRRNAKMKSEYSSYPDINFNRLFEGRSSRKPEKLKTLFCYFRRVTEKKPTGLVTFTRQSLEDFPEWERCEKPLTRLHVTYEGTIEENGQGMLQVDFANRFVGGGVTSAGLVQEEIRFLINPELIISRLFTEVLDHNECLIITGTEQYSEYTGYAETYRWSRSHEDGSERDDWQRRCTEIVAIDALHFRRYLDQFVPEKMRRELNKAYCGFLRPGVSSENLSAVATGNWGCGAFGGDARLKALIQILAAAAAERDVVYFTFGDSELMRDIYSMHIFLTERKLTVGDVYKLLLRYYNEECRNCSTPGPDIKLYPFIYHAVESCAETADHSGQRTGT
pIC50: −log10 of the molar value.

CN1CCOCC1COc1ncnc2c1c1ccc(S(=O)(=O)NC3(C#N)CC3)cc1n2-c1nnc(C(F)F)s1 (stereo not shown)    6.00 to 7.00
CN(C[C@@H]1COCCN1C)c1ncnc2c1c1ccc(S(=O)(=O)NC3(C#N)CC3)cc1n2-c1nnc(C(F)F)s1    ≥ 7.00
N#CC1(NS(=O)(=O)c2ccc3c4c(N5CCO[C@@H](CO)C5)ncnc4n(-c4nnc(C(F)F)s4)c3c2)CC1    ≥ 7.00

Item CCN(CC)[C@@H]1CCN(c2ncnc3c2c2ccc(S(=O)(=O)NC4(C#N)CC4)cc2n3-c2nnc(C(F)F)s2)C[C@H]1F with hPARG (Homo sapiens, UniProt Q86W56) - pIC50?
≥ 7.00

====

// hPARG (Homo sapiens, UniProt Q86W56) IC50 records

Please provide the recorded IC50 for CCN(CC)[C@@H]1CCN(c2ncnc3c2c2ccc(S(=O)(=O)NC4(C#N)CC4)cc2n3-c2nnc(C(F)F)s2)C[C@@H]1OC [Example 50] , tested on hPARG (Homo sapiens, UniProt Q86W56).
≤ 0.1 µM

API: value(readout=IC50, system=hPARG (Homo sapiens, UniProt Q86W56)) for record C[C@H]1CN(c2ncnc3c2c2ccc(S(=O)(=O)NC4(C#N)CC4)cc2n3-c2nnc(C(F)F)s2)C[C@H](C)N1 [Example 94]
≤ 0.1 µM

State its IC50 on hPARG (Homo sapiens, UniProt Q86W56): N#CC1(NS(=O)(=O)c2ccc3c4c(SCCO)ncnc4n(-c4nnc(C(F)F)s4)c3c2)CC1 [Example 27]
≤ 0.1 µM

Any idea what IC50 came out for CN(CC1COCCN1C)c1ncnc2c1c1ccc(S(=O)(=O)NC3(C#N)CC3)cc1n2-c1nnc(C(F)F)s1 (stereo not shown) [Example 64] on hPARG (Homo sapiens, UniProt Q86W56)?
≤ 0.1 µM

Form field - read-out: IC50; system: hPARG (Homo sapiens, UniProt Q86W56); submitted item: CN(C)C(=O)COc1ncnc2c1c1ccc(S(=O)(=O)NC3(C#N)CC3)cc1n2-c1nnc(C(F)F)s1 [Example 6]
0.1 to 1 µM
